- Tested on: T47D
- test_method_notes: NCI tumour cell line growth inhibition, 48 h
Activity calls are given as the source filed them. No stated cut-off is given here; in the data, active = GI50 up to about 1.1 µM and inactive = higher.
For each entry below, report its GI50 value.

Dear colleague, I am looking for the recorded GI50 of the following compound: CN(/N=C/c1ccccn1)C1=NCCCN1
> 100 µM (inactive)

Dear colleague, I am looking for the recorded GI50 of the following compound: CC(C)CCCC(C)[C@H]1CCC2[C@@H]3CCC4Cc5nc6c(nc5C[C@]4(C)C3CC[C@@]21C)CC1CC[C@@H]2C(C[C@@H](O)[C@@]3(C)C2C[C@@H]2OC4(CCC(C)CO4)C(C)[C@@H]23)[C@@]1(C)C6 (some centres not stated)
> 100 µM (inactive)

Dear colleague, I am looking for the recorded GI50 of the following compound: Cc1cc(C)n(CN(CCCCO)Cn2nc(C)cc2C)n1
25.6 µM (inactive)

Dear colleague, I am looking for the recorded GI50 of the following compound: CC(N)/C(N)=N/O (configuration not stated)
> 100 µM (inactive)

Dear colleague, I am looking for the recorded GI50 of the following compound: O=C(O)C(Cc1c[nH]cn1)N1C(=O)c2ccccc2C1=O (configuration not stated)
> 100 µM (inactive)

Dear colleague, I am looking for the recorded GI50 of the following compound: O=C(NNCc1ccc(Cl)cc1)Nc1cccc2ccccc12
28.6 µM (inactive)

Dear colleague, I am looking for the recorded GI50 of the following compound: O=C(O)c1ccc2c(c1)CC1(C2)Cc2ccccc2C1=O (configuration not stated)
> 100 µM (inactive)
